testedTarget: furin, P09958;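 further: purified furin at 1:10 enzyme:substrate in 50 mM HEPES pH 7.5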
Sequence (P09958 whole entry): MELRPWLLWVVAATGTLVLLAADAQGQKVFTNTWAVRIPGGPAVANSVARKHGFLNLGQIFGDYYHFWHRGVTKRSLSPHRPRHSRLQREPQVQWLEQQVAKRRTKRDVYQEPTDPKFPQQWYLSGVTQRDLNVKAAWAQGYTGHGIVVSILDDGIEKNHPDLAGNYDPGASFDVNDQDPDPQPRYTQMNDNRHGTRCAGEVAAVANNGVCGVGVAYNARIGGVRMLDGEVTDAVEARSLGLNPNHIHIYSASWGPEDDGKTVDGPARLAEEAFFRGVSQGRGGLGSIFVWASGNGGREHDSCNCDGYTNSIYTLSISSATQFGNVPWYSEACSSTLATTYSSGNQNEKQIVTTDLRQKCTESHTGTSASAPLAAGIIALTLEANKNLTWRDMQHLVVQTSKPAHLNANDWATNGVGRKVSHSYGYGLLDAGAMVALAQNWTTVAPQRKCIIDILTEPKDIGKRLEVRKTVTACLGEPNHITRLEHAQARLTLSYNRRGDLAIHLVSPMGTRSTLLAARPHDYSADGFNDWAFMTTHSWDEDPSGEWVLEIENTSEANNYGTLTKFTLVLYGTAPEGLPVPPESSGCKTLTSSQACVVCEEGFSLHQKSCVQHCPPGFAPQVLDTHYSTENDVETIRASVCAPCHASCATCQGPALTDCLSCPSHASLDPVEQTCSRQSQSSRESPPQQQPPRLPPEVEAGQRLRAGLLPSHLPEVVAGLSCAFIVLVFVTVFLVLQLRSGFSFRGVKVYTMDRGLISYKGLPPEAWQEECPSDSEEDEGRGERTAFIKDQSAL
assayProcedure: furin cleavage Z-score vs untreated control; higher = more cleavage, active = 3.5 or more, inactive = 1 or less, 8 variable residues between constant flanks
runConditions: 15 min
Some of the results follow. No count for the full screen is at hand.
Entries annotated with measured furin cleavage Z-score
Lab note: record the figure alone, no unit after it.

1. CAPVSARRGRAGNASASA [HC661] | 2.35
2. CARRKRKVLHAGNASASA [FS-2515] | 1.49

Let us move to another entry and its furin cleavage Z-score.
For the sequence CAEPLDLPPIAGNASASA [HC1598] , what furin cleavage Z-score is on record?
1.44

The measurements presented in this section are drawn from the supplement of paper PMC3545927.
